Where do the numbers come from? From ChEMBL document CHEMBL5126578.

METHOD NOTES: Antiproliferative activity against human H357 cells assessed as reduction in cell viability for 48 hrs by MTT assay
Assay type: functional, cell-based
CONDITION SUMMARY: H357, 48 h
Let's look at some molecules and their measured IC50.
MEASUREMENT NAME: IC50 (µM)

• COc1cc([C@@H]2c3cc4c(cc3[C@@H](O[C@@H]3O[C@@H]5CO[C@@H](C)O[C@H]5[C@H](O)[C@H]3O)[C@H]3COC(=O)[C@H]23)OCO4)cc(OC)c1O [ETOPOSIDE] = 32
• O=C1/C(=C/c2ccccc2)N=C2Sc3cccc(O)c3N12 = 4.8
• O=C1/C(=C/c2ccc(Cl)cc2)N=C2Sc3cccc(O)c3N12 = 5
